- TARGET UNDER TEST: PD-1/PD-L1 interaction (Homo sapiens)
- Construct: expressed in transfected cells; host or cells: CHO cells (aAPC-PD-L1) co-cultured with Jurkat cells overexpressing PD-1 and an NFAT-luciferase reporter
- METHOD: PD-1/PD-L1 NFAT reporter co-culture assay
- Assay type: cell-based
- CONDITION NOTES: Jurkat PD-1 NFAT-luciferase cells co-cultured with aAPC-PD-L1 CHO cells, 6 hrs at 37° C.; read-out: EC50 NFAT Luciferase
Property: EC50; scope: individual compounds
ENDPOINT LABEL: EC50 (nM)

{"COMPOUND": "COc1nc(OCc2cccc(-c3cccc(COc4nc(OC)c(CN[C@@](C)(CO)C(=O)O)cc4Cl)c3C)c2C)c(Cl)cc1CN[C@@](C)(CO)C(=O)O [Example 44]", "ENDPOINT LABEL": "EC50", "NUMERIC READOUT": 62}
{"COMPOUND": "N#Cc1cncc(COc2nc(OCc3cccc(-c4cccc(COc5nc(OCc6cncc(C#N)c6)c(CNC[C@H](O)CC(=O)O)cc5Br)c4Cl)c3Cl)c(Br)cc2CNC[C@H](O)CC(=O)O)c1 [Example 196]", "ENDPOINT LABEL": "EC50", "NUMERIC READOUT": 151}
{"COMPOUND": "Cc1c(COc2cc(OCc3cncc(C#N)c3)c(CNC[C@@H](O)CC(=O)O)cc2Cl)cccc1-c1cccc(-c2ccc(CN3CC[C@H](O)C3)cc2)c1C [Example 335]", "ENDPOINT LABEL": "EC50", "NUMERIC READOUT": 437}
{"COMPOUND": "Cc1c(COc2cc(OCc3cccc(S(C)(=O)=O)c3)c(CN[C@@](C)(CO)C(=O)O)cc2Cl)cccc1-c1cccc(COc2cc(OCc3cccc(S(C)(=O)=O)c3)c(CN[C@@](C)(CO)C(=O)O)cc2Cl)c1C [Example 57]", "ENDPOINT LABEL": "EC50", "NUMERIC READOUT": 351}
{"COMPOUND": "Cc1c(COc2cc(OCc3cncc(C#N)c3)c(CN[C@@](C)(CO)C(=O)O)cc2Cl)cccc1-c1cccc(-c2ccc(OCCNCCO)cc2)c1C [Example 311]", "ENDPOINT LABEL": "EC50", "NUMERIC READOUT": 104}
{"COMPOUND": "COc1nc(OCc2cccc(-c3cccc(COc4ccc(CNCCO)c(OC)n4)c3C)c2C)ccc1CNCCO [Example 21]", "ENDPOINT LABEL": "EC50", "NUMERIC READOUT": 1370}

---

- TARGET UNDER TEST: PD-1/PD-L1 interaction (Homo sapiens)
- Construct: expressed in transfected cells; host or cells: CHO cells (aAPC-PD-L1) co-cultured with Jurkat cells overexpressing PD-1 and an NFAT-luciferase reporter
- METHOD: PD-1/PD-L1 NFAT reporter co-culture assay
- Format: cell-based
- CONDITION NOTES: Jurkat PD-1 NFAT-luciferase cells co-cultured with aAPC-PD-L1 CHO cells, 6 hrs at 37° C.; read-out: EC50 NFAT Luciferase
Could you mark each record criterion met if its EC50 falls strictly under 100 nM, and criterion not met if it equals or exceeds it?

{"SMILES": "CC(C)(NCc1cc(Cl)c(OCc2cccc(-c3cccc(-c4ccc(OCCNCCO)cc4)c3Cl)c2Cl)nc1OCc1cc(C#N)cc(C#N)c1)C(=O)O", "TARGET UNDER TEST": "PD-1/PD-L1 interaction (Homo sapiens)", "ANSWER LABEL": "criterion not met"}
{"SMILES": "N#Cc1cncc(COc2nc(OCc3cccc(-c4cccc(-c5ccc(OCCNCCO)cc5)c4Cl)c3Cl)c(Cl)cc2CNC[C@@H](O)CC(=O)O)c1", "TARGET UNDER TEST": "PD-1/PD-L1 interaction (Homo sapiens)", "ANSWER LABEL": "criterion not met"}
{"SMILES": "COc1nc(O[C@H]2CCc3c(-c4cccc(-c5cnc(CNC[C@H]6C[C@H](O)C6)c(OC)n5)c4Cl)cccc32)c(Cl)cc1CN1CC[C@H](C(=O)O)C1", "TARGET UNDER TEST": "PD-1/PD-L1 interaction (Homo sapiens)", "ANSWER LABEL": "criterion met"}
{"SMILES": "COc1nc(OCc2cccc(-c3cccc(COc4nc(OC)c(CN[C@@H](C)CC(=O)O)cc4Cl)c3C)c2C)c(Cl)cc1CN[C@@H](C)CC(=O)O", "TARGET UNDER TEST": "PD-1/PD-L1 interaction (Homo sapiens)", "ANSWER LABEL": "criterion not met"}
{"SMILES": "COc1nc(-c2cccc(-c3cccc(COc4nc(OCc5cc(C#N)cc(C#N)c5)c(CNC[C@@H](O)CC(=O)O)cc4Cl)c3Cl)c2Cl)ccc1CNC[C@@H]1CCC(=O)N1", "TARGET UNDER TEST": "PD-1/PD-L1 interaction (Homo sapiens)", "ANSWER LABEL": "criterion met"}
{"SMILES": "Cc1c(-c2ccc(OCCNC[C@@H](O)CC(=O)O)cc2)cccc1-c1cccc2c1CC[C@@H]2Oc1nc(OCc2cncc(C#N)c2)c(CNC[C@@H](O)CC(=O)O)cc1Br", "TARGET UNDER TEST": "PD-1/PD-L1 interaction (Homo sapiens)", "ANSWER LABEL": "criterion met"}
{"SMILES": "N#Cc1cncc(COc2nc(OCc3cccc(-c4cccc(-c5ccc(OCCNCCO)cc5)c4Cl)c3Cl)c(Cl)cc2CN2C[C@@H](O)C[C@H]2C(=O)O)c1", "TARGET UNDER TEST": "PD-1/PD-L1 interaction (Homo sapiens)", "ANSWER LABEL": "criterion not met"}

---

- TARGET UNDER TEST: PD-1/PD-L1 (Homo sapiens, UniProt Q9NZQ7)
- METHOD: PD-1/PD-L1 biochemical protein-protein interaction assay (ALPHA)
- CONDITION NOTES: 0.3 nM His tagged PD-L1, 2.5 nM biotinylated Fc-PD-1, 60 minutes at 25° C., read-out: IC50 PD-L1-PD-1 Alpha IC50-mono PD-L1-fcP-D1
Property: IC50; scope: individual compounds

{"COMPOUND": "Cc1c(COc2cc(OCc3cncc(C#N)c3)c(CNC[C@@H](O)CC(=O)O)cc2Cl)cccc1-c1cccc(-c2ccc(C3=NCCN3)c(OC(F)F)c2)c1C [Example 464]", "IC50": "0.099 nM"}
{"COMPOUND": "C[C@@](CO)(NCc1cc(Cl)c(O[C@H]2CCc3c(-c4cccc(-c5ccc6c(c5)C[C@@H](N)C6)c4Cl)cccc32)nc1OCc1cncc(C#N)c1)C(=O)O [Example 696]", "IC50": "0.099 nM"}
{"COMPOUND": "Cc1c(COc2cc(OCc3cncc(C#N)c3)c(CNCCO)cc2Cl)cccc1-c1cccc(-c2ccc(CN(C)C)cc2)c1Br [Example 450]", "IC50": "1.56 nM"}

---

Property: AC50; scope: individual compounds
- TARGET UNDER TEST: PD-L1 (Homo sapiens)
- Construct: determine if they can specifically dimerize the extracellular domains of PD-L1
- METHOD: PD-L1/PD-L1 dimerization biochemical protein-protein interaction assay (ALPHA)
- Type: binding
- CONDITION NOTES: compound-induced PD-L1 dimerization, head prints '1 nM' (0.5 nM His-tagged PD-L1 and 0.5 nM FLAG-tagged PD-L1), read-out: AC50 PDL1 Dimer Alpha 1 nM

{"SMILES": "COc1nc(OCc2cccc(-c3cccc(COc4nc(OC)c(CN5CCC[C@H]5C(=O)O)cc4Cl)c3C)c2C)c(Cl)cc1CN1CCC[C@H]1C(=O)O", "AC50": "314 nM"}
{"SMILES": "COc1nc(OCc2cccc(-c3cccc(COc4nc(OC)c(CNC[C@@H](O)C(=O)O)cc4Cl)c3C)c2C)c(Cl)cc1CNC[C@@H](O)C(=O)O", "AC50": "≥ 10000 nM"}
{"SMILES": "Cc1c(COc2cc(OCc3cc(C#N)ccn3)c(CNC[C@@H](O)CC(=O)O)cc2Cl)cccc1-c1cccc(COc2cc(OCc3cc(C#N)ccn3)c(CNC[C@@H](O)CC(=O)O)cc2Cl)c1C", "AC50": "423 nM"}
{"SMILES": "COc1cc(OCc2cccc(-c3cccc(COc4cc(OC)c(CNC[C@@H](O)CC(=O)O)cc4C#N)c3C)c2C)c(C#N)cc1CNC[C@@H](O)CC(=O)O", "AC50": "≥ 10000 nM"}
{"SMILES": "COc1nc(OCc2cccc(-c3cccc(COc4nc(OC)c(CN[C@H](C)C(=O)O)cc4Cl)c3C)c2C)c(Cl)cc1CN[C@H](C)C(=O)O", "AC50": "≥ 10000 nM"}

---

- TARGET UNDER TEST: interaction between the recombinant extracellular domain (ECD) of PD-1 and native cell-bound PD-L1 (Homo sapiens)
- Sequence (Q9NZQ7 19-290): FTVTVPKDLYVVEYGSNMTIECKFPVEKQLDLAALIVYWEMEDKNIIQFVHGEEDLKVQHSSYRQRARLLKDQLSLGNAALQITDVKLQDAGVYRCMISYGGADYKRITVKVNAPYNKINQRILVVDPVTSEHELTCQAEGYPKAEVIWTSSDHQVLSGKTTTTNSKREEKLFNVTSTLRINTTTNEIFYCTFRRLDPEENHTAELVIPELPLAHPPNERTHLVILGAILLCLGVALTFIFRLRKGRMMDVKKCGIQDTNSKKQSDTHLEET
- METHOD: CHO/PD-L1 cell capture assay
- CONDITION NOTES: CHO cells overexpressing PD-L1, pre-incubated 1 hr with compound, captured on biotinylated Fc-PD-1 coated plates, 75 min at room temperature
ENDPOINT LABEL: EC50 (µM)

{"SMILES": "COc1nc(OCc2cccc(-c3cccc(COc4nc(OC)c(CNC[C@H](O)CC(=O)O)cc4Br)c3C)c2C)c(Br)cc1CNC[C@H](O)CC(=O)O", "UNITS TEXT": "µM", "NUMERIC READOUT": 0.14}
{"SMILES": "CNC(=O)CCOc1nc(OCc2cccc(-c3cccc(COc4nc(OCCC(=O)NC)c(CNC[C@@H](O)CC(=O)O)cc4Cl)c3C)c2C)c(Cl)cc1CNC[C@@H](O)CC(=O)O", "UNITS TEXT": "µM", "NUMERIC READOUT": 0.112}
{"SMILES": "Cc1c(COc2nc(OCc3cncc(C#N)c3)c(CNC[C@@H](O)CC(=O)O)cc2Br)cccc1-c1cccc(COc2nc(OCc3cncc(C#N)c3)c(CNC[C@@H](O)CC(=O)O)cc2Br)c1C", "UNITS TEXT": "µM", "NUMERIC READOUT": 0.217}
{"SMILES": "Cc1c(COc2nc(OCc3cc(C#N)ccn3)c(CNC[C@@H](O)CC(=O)O)cc2Br)cccc1-c1cccc(COc2nc(OCc3cc(C#N)ccn3)c(CNC[C@@H](O)CC(=O)O)cc2Br)c1C", "UNITS TEXT": "µM", "NUMERIC READOUT": 0.132}
{"SMILES": "COc1nc(OCc2cccc(-c3cccc(-c4ccc(OCCNC[C@@H](O)CC(=O)O)cc4)c3C)c2C)c(Cl)cc1CNC[C@@H](O)CC(=O)O", "UNITS TEXT": "µM", "NUMERIC READOUT": 0.0075}
{"SMILES": "Cc1c(COc2nc(OCc3cncc(C#N)c3)c(CNC[C@H](O)CC(=O)O)cc2Cl)cccc1-c1cccc(COc2nc(OCc3cncc(C#N)c3)c(CNC[C@H](O)CC(=O)O)cc2Cl)c1C", "UNITS TEXT": "µM", "NUMERIC READOUT": 0.0421}
{"SMILES": "COc1nc(OCc2cccc(-c3cccc(COc4nc(OC)c(CNC[C@H](O)CC(=O)O)cc4Br)c3Cl)c2Cl)ccc1CNC[C@H](O)CC(=O)O", "UNITS TEXT": "µM", "NUMERIC READOUT": 0.0312}
{"SMILES": "Cc1c(COc2cc(OCc3cncc(C#N)c3)c(CNCCO)cc2Cl)cccc1-c1cccc(COc2cc(OCc3cncc(C#N)c3)c(CNCCO)cc2Cl)c1C", "UNITS TEXT": "µM", "NUMERIC READOUT": 0.279}
{"SMILES": "COc1nc(OCc2cccc(-c3cccc(COc4nc(OC)c(CNC[C@@H](O)CC(=O)O)cc4I)c3C)c2C)c(I)cc1CNC[C@@H](O)CC(=O)O", "UNITS TEXT": "µM", "NUMERIC READOUT": 0.166}
{"SMILES": "Cc1c(COc2cc(OCc3cncc(C#N)c3)c(CNC[C@@H](O)CC(N)=O)cc2Cl)cccc1-c1cccc(COc2cc(OCc3cncc(C#N)c3)c(CNC[C@@H](O)CC(N)=O)cc2Cl)c1C", "UNITS TEXT": "µM", "NUMERIC READOUT": 0.156}
{"SMILES": "Cc1c(-c2ccc(OCCNC[C@@H](O)CC(=O)O)cc2)cccc1-c1cccc(-c2ccc(OCCNC[C@@H](O)CC(=O)O)cc2)c1C", "UNITS TEXT": "µM", "NUMERIC READOUT": 0.11}
{"SMILES": "COc1nc(OCc2cccc(-c3cccc(COc4nc(OC)c(CN5CCC[C@H]5C(=O)O)cc4Cl)c3C)c2C)c(Cl)cc1CN1CCC[C@H]1C(=O)O", "UNITS TEXT": "µM", "NUMERIC READOUT": 0.142}
{"SMILES": "Cc1c(COc2cc(OCc3cncc(C#N)c3)c(CNC(CO)(CO)CO)cc2Cl)cccc1-c1cccc(COc2cc(OCc3cncc(C#N)c3)c(CNC(CO)(CO)CO)cc2Cl)c1C", "UNITS TEXT": "µM", "NUMERIC READOUT": 0.254}
{"SMILES": "Cc1c(COc2nc(OCc3cc(C#N)cc(C#N)c3)c(CN[C@@H](CO)C(=O)O)cc2Cl)cccc1-c1cccc(COc2nc(OCc3cc(C#N)cc(C#N)c3)c(CN[C@@H](CO)C(=O)O)cc2Cl)c1C", "UNITS TEXT": "µM", "NUMERIC READOUT": 0.147}
{"SMILES": "COc1cc(OCc2cccc(-c3cccc(COc4cc(OC)c(CNC[C@@H](O)CC(=O)O)cc4Cl)c3C)c2C)c(Cl)cc1CNC[C@@H](O)CC(=O)O", "UNITS TEXT": "µM", "NUMERIC READOUT": 0.0223}
